Hey, just so you know, these numbers are from patent US20240245682A1.

- Target system: human integrin αVβ8 (Homo sapiens, UniProt P06756+P26012)
- Sequence (P06756 31-992 limits assumed): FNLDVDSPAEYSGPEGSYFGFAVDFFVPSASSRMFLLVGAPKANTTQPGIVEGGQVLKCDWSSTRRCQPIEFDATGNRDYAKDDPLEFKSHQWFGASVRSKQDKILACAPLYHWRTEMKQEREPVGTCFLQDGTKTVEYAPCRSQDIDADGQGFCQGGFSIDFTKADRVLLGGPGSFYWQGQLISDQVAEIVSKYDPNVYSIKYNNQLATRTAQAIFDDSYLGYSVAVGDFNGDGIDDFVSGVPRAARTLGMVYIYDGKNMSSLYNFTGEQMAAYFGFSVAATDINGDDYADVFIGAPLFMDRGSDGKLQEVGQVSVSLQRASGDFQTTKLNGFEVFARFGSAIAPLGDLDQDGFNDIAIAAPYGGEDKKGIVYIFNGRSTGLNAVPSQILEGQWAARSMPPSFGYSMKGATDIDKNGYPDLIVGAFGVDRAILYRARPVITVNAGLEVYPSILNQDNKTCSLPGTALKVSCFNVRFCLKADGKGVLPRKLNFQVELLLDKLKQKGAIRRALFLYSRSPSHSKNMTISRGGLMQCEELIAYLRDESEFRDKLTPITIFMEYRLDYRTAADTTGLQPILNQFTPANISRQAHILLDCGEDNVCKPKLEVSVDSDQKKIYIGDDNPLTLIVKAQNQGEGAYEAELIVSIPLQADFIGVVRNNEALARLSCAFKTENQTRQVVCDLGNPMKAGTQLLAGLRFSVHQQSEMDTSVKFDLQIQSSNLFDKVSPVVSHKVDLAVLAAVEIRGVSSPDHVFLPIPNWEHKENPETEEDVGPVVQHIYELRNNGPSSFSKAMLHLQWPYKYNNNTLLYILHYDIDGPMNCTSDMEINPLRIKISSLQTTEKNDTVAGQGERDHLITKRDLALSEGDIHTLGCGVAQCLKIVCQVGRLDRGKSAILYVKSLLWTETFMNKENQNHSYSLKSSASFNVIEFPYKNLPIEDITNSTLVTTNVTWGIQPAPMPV
- Sequence (P26012 43-684 limits assumed): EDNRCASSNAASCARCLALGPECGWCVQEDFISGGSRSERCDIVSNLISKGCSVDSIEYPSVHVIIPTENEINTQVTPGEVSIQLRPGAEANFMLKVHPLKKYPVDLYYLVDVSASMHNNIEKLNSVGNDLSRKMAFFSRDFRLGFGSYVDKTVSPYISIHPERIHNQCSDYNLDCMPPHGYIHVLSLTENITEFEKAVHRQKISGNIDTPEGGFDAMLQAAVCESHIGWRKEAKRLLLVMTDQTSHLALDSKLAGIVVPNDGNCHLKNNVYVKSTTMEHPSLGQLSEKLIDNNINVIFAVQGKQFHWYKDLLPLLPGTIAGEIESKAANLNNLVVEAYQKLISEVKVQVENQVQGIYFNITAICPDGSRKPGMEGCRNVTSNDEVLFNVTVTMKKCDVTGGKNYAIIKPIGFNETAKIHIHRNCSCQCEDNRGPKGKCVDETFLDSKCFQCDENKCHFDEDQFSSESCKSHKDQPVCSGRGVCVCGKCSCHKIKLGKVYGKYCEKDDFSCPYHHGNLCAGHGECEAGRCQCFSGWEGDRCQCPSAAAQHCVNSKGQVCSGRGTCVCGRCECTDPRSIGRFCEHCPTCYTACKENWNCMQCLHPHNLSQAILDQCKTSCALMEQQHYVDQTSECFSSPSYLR
- Protocol details: AlphaScreen proximity-based integrin binding assay with TGF-b1 LAP
- Reported conditions: values given as ranges
Each entry below carries its reported IC50.

Would you please look over these solved cases?
O=C(O)[C@H](CCOCCCCc1ccc2c(n1)NCCC2)NC(=O)C1(n2nc(Cl)cc2Cl)CC1 [Compound 69] ... < 50 nM
O=C(O)[C@H](CCOCCCCc1ccc2c(n1)NCCC2)NC(=O)C1(n2ccc(Cl)n2)CC1 [Compound 55] ... 50 to 150 nM
O=C(O)[C@H](CCOCCCCc1ccc2c(n1)NCCC2)NC(=O)C1(c2ccccc2F)CC1 [Compound 9] ... < 50 nM

Query string: Would you kindly share the measured IC50 for O=C(O)[C@H](CCOCCCCc1ccc2c(n1)NCCC2)NC(=O)C1(c2ncccn2)CC1 [Compound 12] ?
Result string: ≥ 500 nM

###

- Target system: human integrin αVβ1 (Homo sapiens, UniProt P05556+P06756)
- Sequence (P05556 21-728 limits assumed, one chain of several): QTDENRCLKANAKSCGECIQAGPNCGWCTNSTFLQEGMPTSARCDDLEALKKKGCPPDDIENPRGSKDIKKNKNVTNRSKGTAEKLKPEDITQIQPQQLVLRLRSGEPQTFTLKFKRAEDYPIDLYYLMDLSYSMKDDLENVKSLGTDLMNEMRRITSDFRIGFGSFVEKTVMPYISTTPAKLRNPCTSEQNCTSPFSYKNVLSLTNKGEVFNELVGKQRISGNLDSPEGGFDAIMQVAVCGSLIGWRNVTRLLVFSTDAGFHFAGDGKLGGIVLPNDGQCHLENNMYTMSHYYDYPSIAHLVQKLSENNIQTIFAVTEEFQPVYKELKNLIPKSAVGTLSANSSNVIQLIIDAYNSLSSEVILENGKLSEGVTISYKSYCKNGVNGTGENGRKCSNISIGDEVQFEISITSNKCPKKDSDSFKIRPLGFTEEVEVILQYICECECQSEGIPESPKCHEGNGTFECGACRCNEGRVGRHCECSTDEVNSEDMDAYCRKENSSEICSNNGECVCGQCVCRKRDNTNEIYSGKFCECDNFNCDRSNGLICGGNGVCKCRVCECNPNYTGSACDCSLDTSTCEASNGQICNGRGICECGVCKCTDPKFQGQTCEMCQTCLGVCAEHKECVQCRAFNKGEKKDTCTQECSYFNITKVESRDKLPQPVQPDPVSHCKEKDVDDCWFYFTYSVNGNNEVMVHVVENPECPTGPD
- Protocol details: AlphaScreen proximity-based integrin binding assay with TGF-b1 LAP
- Reported conditions: values given as ranges
- Experimental: The biochemical potency of the disclosed compounds was determined using the AlphaScreen® (Perkin Elmer, Waltham, MA) proximity-based assay as described previously (Ullman E F et al., Luminescent oxygen channeling immunoassay: Measurement of particle binding kinetics by chemiluminescence. Proc. Natl. Acad. Sci. USA, Vol. 91, pp. 5426-5430, June 1994, herein incorporated by reference in its entirety). […] 2. […] After another 30 minute incubation, samples were then read. […]
Each entry below carries its reported IC50.

Would you please look over these solved cases?
O=C(O)[C@H](CCOCCCCc1ccc2c(n1)NCCC2)NC(=O)C1(c2c(Cl)cn[nH]c2=O)CC1 ... < 50 nM
Cc1ncnc(O)c1C1(C(=O)N[C@@H](CCOCCCCc2ccc3c(n2)NCCC3)C(=O)O)CC1 ... 50 to 150 nM
Cn1cc(C#N)c(C2(C(=O)N[C@@H](CCOCCCCc3ccc4c(n3)NCCC4)C(=O)O)CC2)n1 ... < 50 nM

Query string: Would you kindly share the measured IC50 for "O=C(O)[C@H](CCOCCCCc1ccc2c(n1)NCCC2)NC(=O)C1(c2cncnc2)CC1" ?
Result string: < 50 nM

Query string: Would you kindly share the measured IC50 for "O=C(O)[C@H](CCOCCCCc1ccc2c(n1)NCCC2)NC(=O)C1(c2[nH]ncc2Cl)CC1" ?
Result string: < 50 nM

###

- Target system: human integrin αVβ6 (Homo sapiens, UniProt P06756+P18564)
- Sequence (P06756 31-992 limits assumed): as the sequence (P06756 31-992 limits assumed) above
- Sequence (P18564 22-707 limits assumed): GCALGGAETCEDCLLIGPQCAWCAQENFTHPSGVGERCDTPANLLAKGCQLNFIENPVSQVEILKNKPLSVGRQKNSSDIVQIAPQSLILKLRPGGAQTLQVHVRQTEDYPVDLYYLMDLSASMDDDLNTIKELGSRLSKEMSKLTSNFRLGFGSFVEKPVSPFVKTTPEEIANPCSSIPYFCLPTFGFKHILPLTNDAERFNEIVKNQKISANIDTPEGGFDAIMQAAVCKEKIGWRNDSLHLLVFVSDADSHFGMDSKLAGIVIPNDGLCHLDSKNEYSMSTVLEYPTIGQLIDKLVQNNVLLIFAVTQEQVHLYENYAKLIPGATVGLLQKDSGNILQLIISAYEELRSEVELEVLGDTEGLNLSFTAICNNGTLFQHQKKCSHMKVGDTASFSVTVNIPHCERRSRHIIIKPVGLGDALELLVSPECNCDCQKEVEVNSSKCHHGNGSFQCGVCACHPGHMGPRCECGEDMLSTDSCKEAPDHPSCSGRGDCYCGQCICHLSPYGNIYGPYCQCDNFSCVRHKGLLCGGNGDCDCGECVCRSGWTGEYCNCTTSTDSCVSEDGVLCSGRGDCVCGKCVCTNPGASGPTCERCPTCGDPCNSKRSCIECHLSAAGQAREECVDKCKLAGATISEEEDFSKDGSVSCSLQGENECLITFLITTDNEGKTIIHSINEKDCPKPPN
- Protocol details: AlphaScreen proximity-based integrin binding assay with TGF-b1 LAP
- Reported conditions: values given as ranges
pIC50: −log10 of the molar value.
Each entry below carries its reported pIC50.

O=C(O)[C@H](CCOCCCCc1ccc2c(n1)NCCC2)NC(=O)C1(c2ccccc2F)CC1 [Compound 9] ... ≤ 6.30
Cc1ncccc1C1(C(=O)N[C@@H](CCOCCCCc2ccc3c(n2)NCCC3)C(=O)O)CC1 [Compound 13] ... ≤ 6.30
O=C(O)[C@H](CCOCCCCc1ccc2c(n1)NCCC2)NC(=O)C1(n2c(C3CC3)cccc2=O)CC1 [Compound 91] ... < 6.30
O=C(O)[C@H](CCOCCCCc1ccc2c(n1)NCCC2)NC(=O)C1(c2cncnc2)CC1 [Compound 22] ... ≤ 6.30
O=C(O)[C@H](CCOCCCCc1ccc2c(n1)NCCC2)NC(=O)C1(C(F)(F)F)CCN(CC(F)(F)F)CC1 [Compound 96] ... < 6.30
N#Cc1cncc(C2(C(=O)N[C@@H](CCOCCCCc3ccc4c(n3)NCCC4)C(=O)O)CC2)c1 [Compound 27] ... ≤ 6.30
Cn1cc(C(F)(F)F)c(C2(C(=O)N[C@@H](CCOCCCCc3ccc4c(n3)NCCC4)C(=O)O)CC2)n1 [Compound 77] ... ≤ 6.30
O=C(O)[C@H](CCOCCCCc1ccc2c(n1)NCCC2)NC(=O)C1(c2nccnc2C(F)(F)F)CC1 [Compound 67] ... ≤ 6.30

Please look at the following compound next.
Query string: API: value(readout= pIC50, system= human integrin αVβ6 (Homo sapiens, UniProt P06756+P18564), query= O=C(O)[C@H](CCOCCCCc1ccc2c(n1)NCCC2)NC(=O)C1(c2ncc(F)cc2Cl)CC1 [Compound 14] )
Result string: ≤ 6.30

###

Each entry below carries its reported IC50.
- Target system: human integrin αVβ8 (Homo sapiens, UniProt P06756+P26012)
- Protocol details: AlphaScreen proximity-based integrin binding assay with TGF-b1 LAP
- Reported conditions: values given as ranges

Would you please look over these solved cases?
N#Cc1ccccc1C1(C(=O)N[C@@H](CCOCCCCc2ccc3c(n2)NCCC3)C(=O)O)CC1 ... 50 to 150 nM
N#Cc1cncc(C2(C(=O)N[C@@H](CCOCCCCc3ccc4c(n3)NCCC4)C(=O)O)CC2)c1 ... 150 to 250 nM

Please look at the following compound next.
Query string: Would you kindly share the measured IC50 for "COc1cccc(C#N)c1C1(C(=O)N[C@@H](CCOCCCCc2ccc3c(n2)NCCC3)C(=O)O)CC1" ?
Result string: < 50 nM

###

- Target system: human integrin αVβ1 (Homo sapiens, UniProt P05556+P06756)
- Protocol details: AlphaScreen proximity-based integrin binding assay with TGF-b1 LAP
- Reported conditions: values given as ranges
Each entry below carries its reported IC50.

Would you please look over these solved cases?
O=C(O)[C@H](CCOCCCCc1ccc2c(n1)NCCC2)NC(=O)C1(n2c(=O)ccc3ccccc32)CC1 [Compound 90] ... 50 to 150 nM
O=C(N[C@@H](CCOCCCCc1ccc2c(n1)NCCC2)C(=O)O)c1ccn(-c2ccccc2)n1 [Compound 97] ... 50 to 150 nM
COc1ncnc(Cl)c1C1(C(=O)N[C@@H](CCOCCCCc2ccc3c(n2)NCCC3)C(=O)O)CC1 [Compound 62] ... < 50 nM
O=C(O)[C@H](CCOCCCCc1ccc2c(n1)NCCC2)NC(=O)C1(c2c(Cl)cccc2Cl)CC1 [Compound 7] ... < 50 nM

Please look at the following compound next.
Query string: API: value(readout= IC50, system= human integrin αVβ1 (Homo sapiens, UniProt P05556+P06756), query= O=C(O)[C@H](CCOCCCCc1ccc2c(n1)NCCC2)NC(=O)C1(c2cccc(F)c2)CCOCC1 [Compound 88] )
Result string: < 50 nM
